# assayName: self-splicing fitness, log relative to wild type (ln ratio); higher = more splicing; Tetrahymena group I intron in knt gene, E. coli kanamycin selection, DiMSum; sequences stand for … in CUCUCU…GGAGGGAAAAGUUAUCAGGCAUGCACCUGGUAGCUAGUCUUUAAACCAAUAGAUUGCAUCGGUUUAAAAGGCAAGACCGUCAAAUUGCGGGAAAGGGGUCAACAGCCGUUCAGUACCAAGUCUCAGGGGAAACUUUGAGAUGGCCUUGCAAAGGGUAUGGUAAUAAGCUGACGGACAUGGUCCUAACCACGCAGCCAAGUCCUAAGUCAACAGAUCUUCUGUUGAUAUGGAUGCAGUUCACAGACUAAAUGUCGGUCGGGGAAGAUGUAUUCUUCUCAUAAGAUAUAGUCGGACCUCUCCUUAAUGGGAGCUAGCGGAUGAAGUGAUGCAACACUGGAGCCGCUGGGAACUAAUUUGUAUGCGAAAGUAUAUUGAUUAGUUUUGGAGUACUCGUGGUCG;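 further: selection with 25 µg/mL kanamycin versus none on LB agar overnight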
# measurementConditions: 30 °C
The following sequences are listed with their measured self-splicing fitness (ln) values.
// return just the number, without any unit appended

Task item: Field request: self-splicing fitness (ln) | item: `CUGCAGCAAUAUUACGAGGU`
Reply: -3.65

Task item: Please give the result for `GCGUAGCAAUAUUACGGUAU` too.
Reply: -2.03

Task item: What about this sequence? `GAAUAGCAAUAUUACGUCAU`
Reply: -1.07

Task item: Next: `UCUCAGCAAUAUUACGGCUA`
Reply: -0.678

Task item: Request: `AGGCAGCAAUAUUACGCGAA`
Reply: -1.54
